- Study system: T1, amino acid residues 26-148 of human ANGPTL4 fused in-line to mouse IgG2a (hANGPTL4-mFc) (human)
- T1 construct: contains the N-terminal coiled-coil region
- T1 chain: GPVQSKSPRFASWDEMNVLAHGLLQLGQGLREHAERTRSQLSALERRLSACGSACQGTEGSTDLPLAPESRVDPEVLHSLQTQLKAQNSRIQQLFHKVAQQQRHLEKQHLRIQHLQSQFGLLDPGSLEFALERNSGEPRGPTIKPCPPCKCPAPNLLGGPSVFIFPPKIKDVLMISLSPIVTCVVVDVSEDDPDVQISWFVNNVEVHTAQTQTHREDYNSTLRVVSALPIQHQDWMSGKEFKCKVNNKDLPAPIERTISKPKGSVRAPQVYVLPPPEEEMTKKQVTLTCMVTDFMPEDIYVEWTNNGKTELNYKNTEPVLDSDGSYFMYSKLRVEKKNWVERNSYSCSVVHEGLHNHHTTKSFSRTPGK
- Assay text: SPR (Biacore), 25° C., pH 7.2, antigen captured by anti-mFc

{"Binder": "H1H284P (antibody, V domains shown, also called entire H1H284 mAb; Full mAb) VH: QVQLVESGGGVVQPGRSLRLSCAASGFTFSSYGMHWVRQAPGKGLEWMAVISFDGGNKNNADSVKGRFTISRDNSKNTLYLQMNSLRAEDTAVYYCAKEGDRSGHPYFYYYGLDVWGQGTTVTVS VL: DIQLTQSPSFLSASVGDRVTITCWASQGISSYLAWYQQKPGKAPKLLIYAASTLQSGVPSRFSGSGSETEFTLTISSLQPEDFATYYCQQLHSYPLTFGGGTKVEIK", "koff / s⁻¹": "5.36e-05"}
{"Binder": "H1H268P (antibody, V domains shown, also called entire H1H268 mAb; Full mAb) VH: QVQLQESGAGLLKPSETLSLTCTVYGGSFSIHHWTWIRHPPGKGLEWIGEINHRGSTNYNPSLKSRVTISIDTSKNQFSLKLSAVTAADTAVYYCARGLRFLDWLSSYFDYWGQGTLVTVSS VL: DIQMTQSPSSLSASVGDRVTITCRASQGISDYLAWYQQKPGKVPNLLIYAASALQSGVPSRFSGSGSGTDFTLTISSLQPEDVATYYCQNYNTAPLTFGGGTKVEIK", "koff / s⁻¹": "9.59e-05"}
{"Binder": "H1H284P Fab fragment (Fab, V domains shown, Fab made by papain digestion of H1H284P (IgG1); also called H1H284 Fab) VH: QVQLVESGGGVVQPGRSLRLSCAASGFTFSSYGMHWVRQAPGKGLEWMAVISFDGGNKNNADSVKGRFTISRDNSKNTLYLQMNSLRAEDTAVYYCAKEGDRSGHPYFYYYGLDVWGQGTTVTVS VL: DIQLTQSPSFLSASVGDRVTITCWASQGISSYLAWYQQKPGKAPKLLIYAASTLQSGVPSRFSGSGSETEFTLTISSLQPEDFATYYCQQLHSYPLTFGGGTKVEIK", "koff / s⁻¹": 0.000202}
{"Binder": "H1H268P Fab fragment (Fab, V domains shown, Fab made by papain digestion of H1H268P (IgG1); also called H1H268 Fab) VH: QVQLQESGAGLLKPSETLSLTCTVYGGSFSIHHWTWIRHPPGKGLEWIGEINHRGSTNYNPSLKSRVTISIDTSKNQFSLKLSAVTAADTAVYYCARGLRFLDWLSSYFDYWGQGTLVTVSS VL: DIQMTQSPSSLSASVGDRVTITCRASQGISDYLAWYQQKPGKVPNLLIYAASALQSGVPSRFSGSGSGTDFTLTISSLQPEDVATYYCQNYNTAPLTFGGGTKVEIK", "koff / s⁻¹": 0.000601}

Values from patent US20130266574A1
